src = ChEMBL document CHEMBL1201862

System: UACC-62
Experiment: NCI tumour cell line growth inhibition, 48 h
Active and inactive are the calls of the source. Cut-off read from the data, not from the text of the source: active = GI50 up to about 1.1 µM and inactive = higher.
Thanks in advance; please answer with one of these: Yes (active), No (inactive)

Outcome logged for CN(C(=O)c1ccco1)C(=S)N1CCN(c2ccccn2)CC1 in this assay:
No

Outcome logged for CN1C(=O)C(=CNc2ccccc2Cl)C(=O)N(C)C1=O in this assay:
No

Outcome logged for C[C@@]12C(=O)OC(=O)[C@]1(C)[C@H]1CC[C@@H]2O1 in this assay:
No

Outcome logged for CN(C)c1ccc(C(=C2C=CC(=[N+](C)C)C=C2)c2ccc(N(C)C)cc2)cc1 in this assay:
Yes

Outcome logged for COc1ccc(N2C(=O)CC(=O)N(C(=O)COc3ccc(OCC(=O)N4C(=O)CC(=O)N(c5ccc(OC)cc5)C4=S)cc3)C2=S)cc1 in this assay:
No

Outcome logged for Cc1cccc(C(C)(C)C)c1NC(=O)C(C#N)C1=C(Cl)C(=O)c2ccccc2C1=O (stereo not given) in this assay:
No

Outcome logged for CC(C)(C)C(C#N)(C#N)c1ccc(C(C#N)(C#N)C(C)(C)C)nn1 in this assay:
No

Outcome logged for O=C(CC1(O)C(=O)Nc2ccc([N+](=O)[O-])cc21)c1ccc(Br)cc1 (stereo not given) in this assay:
No

Outcome logged for O=C1OC(CC(=O)c2ccc(F)cc2)C(Cl)=C1Cl (stereo not given) in this assay:
No

Outcome logged for COC(=O)/C=C(C)/C=C/c1c(C)c(C(C)=O)c(C)n1C in this assay:
No

###

Task for the reader: assign each of the following compounds its reported GI50.
System: OVCAR-8
Test: NCI tumour cell line growth inhibition, 48 h
The source made the active and inactive calls. No stated cut-off is given here; in the data, active = GI50 up to about 1.1 µM and inactive = higher.

Report GI50 for COc1ccc(CNc2nc3c(NC(C)=O)cc(C(F)(F)F)cc3nc2-c2ccccc2)cc1OC tested on OVCAR-8.
56.8 µM (inactive)

Report GI50 for COc1cccc(C2ON=C(c3ccccc3)N2C23CC4CC(CC(C4)C2)C3)c1 (centres undefined) tested on OVCAR-8.
> 10 µM (inactive)

Report GI50 for Nn1c(CCCl)nc2c(Br)cc(Br)cc2c1=O tested on OVCAR-8.
41.5 µM (inactive)

Report GI50 for COc1cc(/C=C/C(=O)OCC23CC[C@@]4(C(=O)O)CCC(C)[C@H](C)C4C2=CCC2[C@@]4(C)CC[C@H](O)C(C)(C)C4CC[C@]23C)ccc1O (some centres undefined) tested on OVCAR-8.
15.9 µM (inactive)

###

Test system: MDA-N
Assay: NCI tumour cell line growth inhibition, 48 h
The source made the active and inactive calls. Rule as the data show it: active = GI50 up to about 1.1 µM and inactive = higher.
measurement_label: GI50

// lookup GI50 for O=C1/C(=C\c2cccc(Oc3ccccc3)c2)S(=O)(=O)C(c2ccccc2)N1c1cc(Cl)ccc1Cl (stereo not given)
10.3 µM (inactive)

// lookup GI50 for Cc1ccc(C2=CC(=O)/C(=C\C(=O)c3ccc(Cl)cc3)O2)cc1
3.2 µM (inactive)

// lookup GI50 for NC(=O)NO [HYDROXYUREA]
1940 µM (inactive)

// lookup GI50 for Cc1ccccc1/N=C/N(C)C
37.5 µM (inactive)

// lookup GI50 for O=C1NI(C#Cc2ccccc2)c2ccccc21
> 100 µM (inactive)

###

Test system: RPMI-8226
Experiment: NCI tumour cell line growth inhibition, 48 h
Active and inactive are the calls of the source. No stated cut-off is given here; in the data, active = GI50 up to about 1.1 µM and inactive = higher.
measurement_label: GI50

// lookup GI50 for COC(=O)[C@]1(c2cc3ccccc3[nH]2)CC2CN(CC(=O)N(C)OC)C1CC2(OC)OC (stereo not given in full)
14.7 µM (inactive)

// lookup GI50 for NC(=S)N/N=C1\CCCCC1C(O)(C(F)(F)Cl)C(F)(F)Cl (stereo not given)
> 10 µM (inactive)

// lookup GI50 for O=C1/C(=C\c2cccc(Oc3ccccc3)c2)S(=O)(=O)C(c2ccccc2)N1c1cc(Cl)ccc1Cl (stereo not given)
5.94 µM (inactive)

// lookup GI50 for N=C(N)N/N=C/c1c(-c2ccc(Cl)cc2)nc2n1CCS2
7.53 µM (inactive)

// lookup GI50 for O=c1c2ncn(C3CCCO3)c2n(-c2ccccc2)c(=S)n1-c1ccccc1 (stereo not given)
> 100 µM (inactive)

// lookup GI50 for CN(C)c1nc(NN)c2c(-c3ccccc3)c(-c3ccccc3)oc2n1
> 100 µM (inactive)

// lookup GI50 for COc1ccc(/C=C2\Sc3nnc(C)n3N=C2c2cc(F)c(Cl)cc2Cl)cc1OC
2.58 µM (inactive)

// lookup GI50 for CN/N=C(\C(=O)Nc1ccc([N+](=O)[O-])cc1[N+](=O)[O-])C1NC(=O)NC1=O (stereo not given)
> 100 µM (inactive)

// lookup GI50 for CC(=O)Oc1cc2c[n+](C)c3c4cc(OC(C)=O)c(OC(C)=O)cc4ccc3c2cc1OC(C)=O
> 20 µM (inactive)

// lookup GI50 for COc1cccc(NC(=O)C(C)(C)C)c1C=O
19.4 µM (inactive)
